Listing of recorded Poli (polyploid cells) by entry.
Test system: H460 cells
Assay: Cell cycle analysis (PI, flow cytometry), H460
Format: cell-based, human
Conditions: H460, IC90 doses, 72 h

| compound | Poli (polyploid cells), % |
| --- | --- |
| CN(CCCNc1c2ccccc2nc2cccc([N+](=O)[O-])c12)CCCNc1ccc2ncn3c4ccccc4c(=O)c1c23 [Compound C-2028] | 2.11 |
| Cc1ccc([N+](=O)[O-])c2c(NCCCN(C)CCCNc3ccc4ncn5c6ccc(O)cc6c(=O)c3c45)c3ccccc3nc12 [Compound C-2045] | 2.05 |
| O=c1c2ccccc2n2cnc3ccc(NCCCN4CCN(CCCNc5c6ccccc6nc6cccc([N+](=O)[O-])c56)CC4)c1c32 [Compound C-2041] | 2.52 |
| Cc1ccc([N+](=O)[O-])c2c(NCCCN(C)CCCNc3ccc4ncn5c6ccccc6c(=O)c3c45)c3ccccc3nc12 [Compound C-2053] | 1.73 |

These measurements were taken from paper PMC8955938.
